molecular target: R164H mutant of SERCA1 (Bos taurus, UniProt Q0VCY0, R164H); construct: expressed in transfected cells; host or cells: HEK 293; assay: Western blot rescue of R164H mutant of SERCA1 in HEK293 cells; type: cell-based, bovine; settings: FIG. 10; HEK293, 24 hours; H 15 μM, I 10 μM, Q 10 μM, R 5 μM, S 15 μM, T 15 μM; relative to wild type
Sequence (Q0VCY0 whole entry R164H): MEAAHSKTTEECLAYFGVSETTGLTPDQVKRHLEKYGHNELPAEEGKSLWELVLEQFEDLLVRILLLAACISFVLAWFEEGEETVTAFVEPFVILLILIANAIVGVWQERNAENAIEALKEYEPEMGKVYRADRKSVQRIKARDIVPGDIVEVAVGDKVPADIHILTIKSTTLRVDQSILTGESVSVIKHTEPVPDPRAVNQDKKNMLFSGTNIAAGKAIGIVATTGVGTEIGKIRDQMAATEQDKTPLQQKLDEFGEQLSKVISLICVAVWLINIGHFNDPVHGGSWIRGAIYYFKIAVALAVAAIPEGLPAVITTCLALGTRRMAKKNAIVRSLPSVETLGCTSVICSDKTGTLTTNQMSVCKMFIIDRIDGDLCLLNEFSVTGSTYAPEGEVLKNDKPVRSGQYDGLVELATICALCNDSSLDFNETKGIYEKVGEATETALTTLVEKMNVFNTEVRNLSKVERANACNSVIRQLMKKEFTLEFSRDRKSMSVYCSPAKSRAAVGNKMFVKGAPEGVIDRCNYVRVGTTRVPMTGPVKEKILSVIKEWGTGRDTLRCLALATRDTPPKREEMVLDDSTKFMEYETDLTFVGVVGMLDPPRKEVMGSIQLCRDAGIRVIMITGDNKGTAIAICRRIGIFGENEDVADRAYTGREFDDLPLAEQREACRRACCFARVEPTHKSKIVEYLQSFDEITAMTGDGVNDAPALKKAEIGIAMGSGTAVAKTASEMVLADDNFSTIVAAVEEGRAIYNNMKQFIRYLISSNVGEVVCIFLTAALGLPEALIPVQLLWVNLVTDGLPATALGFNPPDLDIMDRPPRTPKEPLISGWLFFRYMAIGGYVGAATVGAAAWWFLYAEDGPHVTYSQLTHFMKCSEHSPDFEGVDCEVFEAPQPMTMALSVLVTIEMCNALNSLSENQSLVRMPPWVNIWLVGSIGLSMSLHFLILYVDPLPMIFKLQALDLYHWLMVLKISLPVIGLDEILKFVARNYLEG
value.type: SERCA1 protein level (western blot, densitometry), rescue of R164H mutant

{"compound.structure.string": "COc1ccccc1Nc1nc(-c2sc(NC(=O)c3ccccc3)nc2C)cs1", "observed": "promote the rescue"}
{"compound.structure.string": "CC(=O)c1cccc(Nc2nc(-c3sc(NC(=O)c4ccccc4)nc3C)cs2)c1", "observed": "promote the rescue"}
{"compound.structure.string": "C=Cc1ccc(-c2csc(Nc3ccccc3)n2)cc1", "observed": "promote the rescue"}
{"compound.structure.string": "Cc1cc(C)c2c(C)cc(Nc3ccccc3)nc2c1", "observed": "promote the rescue"}
{"compound.structure.string": "COc1ccc2nc(Nc3nc(=O)c(C)c(C)[nH]3)nc(C)c2c1", "observed": "promote the rescue"}
{"compound.structure.string": "Cc1cc(Nc2ccc(Br)cc2)nc2ccccc12", "observed": "promote the rescue"}
